Cited source for all entries: patent KR20220054080A

Biological target: T1, SARS-CoV-2 RBD-mFc (SARS-CoV-2, UniProt P0DTC2 319-541)
T1 construct: range 319-541
Assay: competition ELISA: RBD-mFc on coated ACE2-His
The label is met for IC50 below 10 nM and not met for IC50 equal to or exceeding 10 nM.

Example results:
INSERT INTO results (binder, category_label) VALUES
  ('SA3779 (antibody, V domains shown) VH: QVQLVESGGGVVQPGRSLRLSCAASGFTFSSYAMHWVRQAPGKGLEWVAVISYDGSNKYYADSAKGRFTISRDNSKNTLYLQMNSLRAEDTAVYYCARRGHYYDSSGYLYWGHGTLITVSS VL: DIQMTQSPSSLSASVGDRVTITCRASQRIATYLHWYQQKPGRAPKLLIYAASSLQTGVPSRFSGSGSGTDFTLTINSLQPEDFATYYCQQSYAIPYTFGQGTKLEIK', 'not met'),
  ('SA3827 (antibody, V domains shown) VH: QVQLVESGGTLVQPGRSLRLSCAASGFTFSSYAMHWVRQAPGKGLEWVAVISYDGSNKYYADSVKGRFTISRDNSKNTLYLQMNSLRAEDTAVYYCARRGHYYDSSGFLYWGQGTLVTVSS VL: DIQMTQSPSSLSASVGDRVTITCRASQSISTYLSWYQQKPGKAPKLLIYAASNLQSGVPSRFSASGSGTDFTLTISSLQPEDFATYYCQQSYNTPRTFGQGTKVEIK', 'met'),
  ('SA4055 (antibody, V domains shown) VH: EVQLVQSGGGLVQPGGSLRLSCAASVITVSSNYMSWVRQAPGKGLEWVSVIYPGGSTYYADSVKGRFTISRDKSKNTLYLQMNSLRAEDTAVYYCARDLDIVGGMDVWGQGTTVTVSS VL: QSALTQPASVSGSPGQSITISCTGTSSDVGDYNLVSWYQQHPGKAPKVMIYDVSHRPSGVSNRFSGSKSGNTASLTISGLQAEDEADYYCSSYTSSTTVVFGGGTKLTVL', 'met'),
  ('SA4044 (antibody, V domains shown) VH: EVQLVQSGGGLIQPGGSLRLSCAASGFTVSSNYMSWVRQAPGKGLEWVSVIYSGGSTYYADSVKGRFTISRDNSKNTLHLQMNSLRAEDTAVYYCARDLPQFDGFDYWGQGTLVTVSS VL: QSALTQPPSLSVAPGRTARITCGGNNIGSKSVNWYQHMPGQAPVLVIYSDTDRPSGIPERVSGSKSGNTATLSISRVEAGDEADYYCQVWDSTTDHVVFGGGTKLTVL', 'not met'),
  ('SA3902 (antibody, V domains shown) VH: QVQLVQSGAEVRQPGASVKVSCKTSGYAFSYYHIHWVRQAPGQGLEWMGLINPGSGGTNYAQKFQGRVTLTRDTSTSTVYMDLTGLRSEDTAVYYCAGSEQPHYYANGAYRVWGQGTLVTVSS VL: DIQMTQSPSTLSASVGDRVTITCRASQSISSYLNWYQQKPGKAPKLLIYEVSTLESGVPSRFSGSRSGTEFTLTISSLQPDDFATYYCQQYDTFGGGTKVEIK', 'not met');

stdin: Quick check: does SA3755 (antibody, V domains shown) VH: QMQLVESGGGVVQPGGSLRLSCAASGFTFDDHTMHWVRQAPGKGLEWVSLISWDGGSTYYADSVKGRFTISRDNSKNSLYLQMNSLRAEDTAVYYCTRDASRRPGDGGYDFDVWGQGTQVTVSS VL: QAVVTQEPSLTVSPGGTVTLTCGSSTGTVTRGHWPYWFQQKPGQAPRTLIYDTDNKHSWTPARFSGSLLGGKAALTLSGAQPEDEADYYCLLSYSDSRVFGTGTKVTVL have IC50 under 10 nM?
stdout: met
